Just for reference, the supplement of paper PMC10567573 is where these values come from.

B1: KLHDC10 (parent)
chain: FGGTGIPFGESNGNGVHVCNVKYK

Variants of: B1
Assay: protein stability index of a GFP-peptide fusion (GPS, HEK-293T) (PSI 1-6); higher = more stable;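 also: lentivirally expressed fusions sorted by FACS into six bins by GFP to DsRed ratio, PSI derived from sequencing read proportions per bin multiplied by bin number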
Conditions: c terminus: a fixed tail appended
quantityName: protein stability index

> print(dat)
   variantdesignation             quantityname  valuereported
1                K24E  protein stability index           1.99
2                 T4N  protein stability index           1.98
3                Y23G  protein stability index           2.04
